# Tested on: CEM cells HIV-1 protection, formazan growth assay
# method_notes: NCI AIDS Antiviral Assay
# test_settings: measured here: growth of uninfected CEM cells
pIC50: −log10 of the molar value.
Would you mind telling me the reported pIC50 of each entry?

Quick note, pIC50 for Cc1c(/C=N/NS(=O)(=O)c2ccccc2)no[n+]1[O-] landed at < 3.70

Quick note, pIC50 for COc1ccccc1C1C(C(=O)Nc2ccccc2)=C(C)NC(C)=C1C(=O)Nc1ccccc1 landed at < 4.66

Quick note, pIC50 for O=C(Nn1cnn2c(=O)c3ccccc3nc2c1=O)c1ccccc1 landed at < 3.70

Quick note, pIC50 for CC1(C)CC23C(=O)N(c4ccccc4)C(=Nc4ccccc4)NC2=CC(C#N)=C(C#N)C3O1 (stereo unspecified) landed at < 4.92

Quick note, pIC50 for COC(=O)c1cc(NC2OCC(OC(C)=O)C(OC(C)=O)C2OC(C)=O)nc(SC)c1C(=O)OC (stereo unspecified) landed at < 3.70

Quick note, pIC50 for CS(=O)(=O)NNS(=O)(=O)c1ccc(F)cc1 landed at < 3.60

Quick note, pIC50 for COC(=O)[C@@H](O)[C@]1(C(=O)OC)C2O[C@@H](OC)[C@@H]1CCCCCC[C@H]2O landed at < 3.70

Quick note, pIC50 for CC1=N/C(=C\c2ccco2)C(=O)O1 landed at < 3.27

Quick note, pIC50 for C/C=C1/CN2CC[C@]34C=C(CO)C1CC23Nc1ccccc14 (stereo partly specified) landed at < 3.91

Quick note, pIC50 for [O-]/[N+]1=[N+](\[O-])c2ccccc2CCCc2ccccc21 landed at < 3.57

Quick note, pIC50 for O=C(CCCCCCCCC(=O)OCC1OC(n2cnc3c(=O)[nH]cnc32)C(O)C1O)OCC1OC(n2cnc3c(=O)[nH]cnc32)C(O)C1O (stereo unspecified) landed at < 3.45

Quick note, pIC50 for CC(=O)NC(Cc1ccccc1)NC(=O)O (stereo unspecified) landed at < 3.70

Quick note, pIC50 for CCOC(=O)N/N=C(/N)c1cccc([N+](=O)[O-])c1 landed at < 3.70

Quick note, pIC50 for O=C1CCCC2=C1CC1=C(CCCC1=O)N2c1ccccc1C(=O)O landed at < 3.70

Quick note, pIC50 for COC(=O)C(CCCCCCCC(C(=O)OC)c1nc2n(c1O)C(=N)N=N2)c1nc2n(c1O)C(=N)N=N2 (stereo unspecified) landed at < 5.13

Quick note, pIC50 for CCC(C)C(NC(=O)c1ccccc1SC(=O)CCCC[n+]1ccccc1)C(=O)O (stereo unspecified) landed at < 3.70

Quick note, pIC50 for O=S(OCC1COS(=O)O1)OCC1COS(=O)O1 (stereo unspecified) landed at 4.11

Quick note, pIC50 for COc1ccccc1C(=O)N(Cc1ccccc1)c1ccc(Cl)c(C(=O)OC(C)C)c1 landed at 4.81

Quick note, pIC50 for CSc1nc2[nH]c(=O)n(O)c(=O)c2n1Cc1ccccc1 landed at 5.42

Quick note, pIC50 for C1=Nc2ccccc2/C1=C/c1c[nH]c2ccccc12 landed at < 3.70

Quick note, pIC50 for O=C1c2cc3c(cc2CC1Cc1ccc2c(c1)CCC2)CCC3 (stereo unspecified) landed at 4.04

Quick note, pIC50 for c1ccc2c(c1)oc1cc3c(cc12)n1nnnc1c1cccn31 landed at < 3.70

Quick note, pIC50 for Cc1cc(=O)c2c(o1)-c1c(cc(O)c(O)c1C(=O)O)OC2 landed at 4.24

Quick note, pIC50 for CC(=O)[C@@H](C)C(=O)N1C(=O)OC[C@@]12[C@@H]1CC[C@@H](C1)C2(C)C landed at < 3.70

Quick note, pIC50 for CC1N(O)C(c2ccccc2)C(c2ccccc2)=[N+]1[O-] (stereo unspecified) landed at < 3.70

Quick note, pIC50 for O=C(C=Nc1ccccc1C(=O)[O-])c1ccco1.O=C(C=Nc1ccccc1C(=O)[O-])c1ccco1.[Zn+2] landed at < 5.86
